Target: Lysyl oxidase homolog 3 (Homo sapiens)
Sequence (P58215 whole entry): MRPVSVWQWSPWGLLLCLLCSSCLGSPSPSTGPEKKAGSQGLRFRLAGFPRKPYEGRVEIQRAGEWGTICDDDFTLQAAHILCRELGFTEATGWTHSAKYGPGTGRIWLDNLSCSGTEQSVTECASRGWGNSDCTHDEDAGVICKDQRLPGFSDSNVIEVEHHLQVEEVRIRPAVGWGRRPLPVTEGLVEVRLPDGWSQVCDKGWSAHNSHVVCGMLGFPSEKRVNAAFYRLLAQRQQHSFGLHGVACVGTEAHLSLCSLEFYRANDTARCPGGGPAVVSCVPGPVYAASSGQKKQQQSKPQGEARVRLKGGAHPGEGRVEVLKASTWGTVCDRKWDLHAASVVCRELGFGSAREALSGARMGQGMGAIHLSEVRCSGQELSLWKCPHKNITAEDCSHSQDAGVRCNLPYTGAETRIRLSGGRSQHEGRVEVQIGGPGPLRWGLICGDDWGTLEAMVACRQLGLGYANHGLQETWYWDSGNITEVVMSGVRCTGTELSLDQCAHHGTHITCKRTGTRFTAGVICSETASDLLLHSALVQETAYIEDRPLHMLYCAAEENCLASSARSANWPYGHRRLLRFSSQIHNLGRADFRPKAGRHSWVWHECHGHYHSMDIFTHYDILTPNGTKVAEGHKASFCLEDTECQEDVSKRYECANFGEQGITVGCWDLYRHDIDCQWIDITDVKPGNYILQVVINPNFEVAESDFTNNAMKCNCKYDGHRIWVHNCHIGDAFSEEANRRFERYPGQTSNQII
Test: Inhibition of recombinant human LOXL3 assessed as reduction of H2O2 production from oxidative deamination of DAP preincubated for 2 hrs followed by substrate addition measured every 2 mins for 1 hr by amplex red reagent-based fluorescence assay
pIC50: −log10 of the molar value.
measure: pIC50

INSERT INTO results (compound, test_target, result) VALUES
  ('Cl.NCc1cc(Oc2cccc(C(=O)N3C[C@@H](O)[C@H](F)C3)c2)nc(C(F)(F)F)c1 (racemic)', 'Lysyl oxidase homolog 3 (Homo sapiens)', 5.86);

====

Listed next: entries and their corresponding inhibition.
Target: Lysyl oxidase homolog 2 (Homo sapiens)
Sequence (whole entry): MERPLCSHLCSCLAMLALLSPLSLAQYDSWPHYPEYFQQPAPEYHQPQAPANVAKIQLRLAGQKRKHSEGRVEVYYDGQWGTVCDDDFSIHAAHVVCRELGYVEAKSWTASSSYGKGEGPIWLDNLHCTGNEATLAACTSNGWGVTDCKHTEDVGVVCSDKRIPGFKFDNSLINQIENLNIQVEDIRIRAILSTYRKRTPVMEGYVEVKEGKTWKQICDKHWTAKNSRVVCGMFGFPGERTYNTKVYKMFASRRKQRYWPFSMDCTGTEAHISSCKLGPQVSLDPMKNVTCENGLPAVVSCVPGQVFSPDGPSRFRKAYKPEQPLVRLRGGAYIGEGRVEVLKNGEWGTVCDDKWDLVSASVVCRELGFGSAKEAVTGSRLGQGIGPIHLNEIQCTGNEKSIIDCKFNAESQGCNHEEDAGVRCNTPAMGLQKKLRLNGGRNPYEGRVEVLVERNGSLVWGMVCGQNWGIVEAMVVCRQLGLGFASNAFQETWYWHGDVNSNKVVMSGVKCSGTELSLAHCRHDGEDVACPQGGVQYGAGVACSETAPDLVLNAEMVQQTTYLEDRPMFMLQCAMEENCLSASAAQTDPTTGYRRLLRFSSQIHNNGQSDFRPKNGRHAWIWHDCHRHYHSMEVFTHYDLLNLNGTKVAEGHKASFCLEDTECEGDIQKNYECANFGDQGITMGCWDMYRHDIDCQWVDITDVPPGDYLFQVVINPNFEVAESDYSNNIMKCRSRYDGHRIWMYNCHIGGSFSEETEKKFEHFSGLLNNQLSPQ
Test: Irreversible inhibition of human LOXL2 assessed as catalytic activity preincubated for 2 hrs followed by substrate addition measured every 2 mins for 1 hr by amplex red reagent-based fluorescence assay relative to control
Design: concentration or dose not given beside the values
measure: inhibition

INSERT INTO results (compound, result) VALUES
  ('Cl.NCc1cc(Oc2cccc(C(=O)NC[C@@H](O)CO)c2)nc(C(F)(F)F)c1', '96%'),
  ('NCc1ccnc(Cl)c1', '93%'),
  ('Cl.NCc1cc(Oc2cccc(C(=O)NCCn3cnnn3)c2)nc(C(F)(F)F)c1', '97%'),
  ('Cl.NCc1cc(Oc2cccc(C(=O)N3CC[C@@H](O)C3)c2)nc(C(F)(F)F)c1', '95%'),
  ('Cl.NCc1cc(Oc2cccc(C(=O)N3C[C@@H](O)[C@H](F)C3)c2)nc(C(F)(F)F)c1 (racemic)', '97%'),
  ('Cl.NCc1cc(Oc2cccc(C(=O)Nc3ccccc3)c2)nc(C(F)(F)F)c1', '98%'),
  ('Cl.NCc1cc(Oc2cccc(C(=O)NCCS(N)(=O)=O)c2)nc(C(F)(F)F)c1', '97%');
